Returns: string. Value is Y if measured melting point is below 100 °C, and N if it is greater than or equal to it.

- COMPOUND: "Cc1c(CCl)c(C)c2c(c1CCl)CC2"
  CLASSIFICATION: "Y"
- COMPOUND: "Brc1ccc(Oc2ccccc2Br)c(Br)c1"
  CLASSIFICATION: "Y"
- COMPOUND: "CC(=O)OCC(=O)c1ccccc1"
  CLASSIFICATION: "Y"
- COMPOUND: "CCCCCCCCC(=O)OC(=O)CCCCCCCC"
  CLASSIFICATION: "Y"
- COMPOUND: "CCCCCCSc1nnc(S)s1"
  CLASSIFICATION: "Y"
- COMPOUND: "CC(Cl)CCl (stereo not drawn)"
  CLASSIFICATION: "Y"
- COMPOUND: "C=C(C)CCCCCCCCCCCCCC"
  CLASSIFICATION: "Y"
- COMPOUND: "CC(=O)OC1CC[C@H]2[C@@H]3[C@H](C)CC4CC(=O)CC[C@]4(C)[C@H]3CC[C@]12C (stereo partly drawn)"
  CLASSIFICATION: "N"
- COMPOUND: "O=C1NC(=O)C(=Cc2cccc(C=C3C(=O)NC(=O)NC3=O)c2)C(=O)N1"
  CLASSIFICATION: "N"
- COMPOUND: "CC(=O)c1c(Cl)cccc1Cl"
  CLASSIFICATION: "Y"
- COMPOUND: "C1CCCCCCCCCCCC1"
  CLASSIFICATION: "Y"
- COMPOUND: "COc1cc(OC)nc(NC(=O)NS(=O)(=O)c2ncccc2C(F)(F)F)n1"
  CLASSIFICATION: "N"
- COMPOUND: "COc1ccc(C(=O)CCCCl)cc1"
  CLASSIFICATION: "Y"
- COMPOUND: "O=[N+]([O-])c1cccc(-c2nnc3n2NC(c2ccc(Cl)cc2)S3)c1 (stereo not drawn)"
  CLASSIFICATION: "N"
